Cell survival rate overview
Test system: MC3T3-E1
assay-text: Cytotoxicity test (MTT), MC3T3-E1
Format: cell-based
stated-conditions: 10^−6 M, cultured for 72 hrs, in comparison with the control group

| line-notation | assay-system | Cell survival rate / % |
| --- | --- | --- |
| N=C(NO)c1ccc(OCCCCCOc2ccc(-c3nc(-c4ccccc4)sc3N)cc2)cc1 | MC3T3-E1 | 81 |
| Cc1nc(-c2ccc(OCCCCCOc3ccc(C(=N)NO)cc3)cc2)c(NC(=O)c2cccnc2)s1 | MC3T3-E1 | 95.0 |
| Cc1nc(-c2ccc(OCCCCCOc3ccc(C(=N)NO)cc3)cc2)c(CNCCN2CCOCC2)s1 | MC3T3-E1 | 103 |
| CN(Cc1ccncc1)c1nc(-c2ccc(OCCCCCOc3ccc(C(=N)NO)cc3)cc2)c(CN2CCOCC2)s1 | MC3T3-E1 | 86 |
| N=C(NO)c1ccc(OCCCCCOc2ccc(-c3nc(-c4cccnc4)sc3N)cc2)cc1 | MC3T3-E1 | 97 |
| Cc1nc(-c2ccc(OCCCCCOc3ccc(C(=N)NO)cc3)cc2)c(CN2CCOCC2)s1 | MC3T3-E1 | 94.7 |
| Cc1nc(-c2ccc(OCCCCCOc3ccc(C(=N)NO)cc3)cc2)c(CN2CCCC2)s1 | MC3T3-E1 | 103 |
| Cc1nc(-c2ccc(OCCCCCOc3ccc(C(=N)NO)cc3)cc2)c(N(C)C)s1 | MC3T3-E1 | 91 |
| N=C(NO)c1ccc(OCCCCCOc2ccc(-c3nc(N4CCOCC4)sc3N3CCOCC3)cc2)cc1 | MC3T3-E1 | 93 |

---

Test system: MC3T3-E1
assay-text: Cytotoxicity test (MTT), MC3T3-E1
Type: cell-based
stated-conditions: 10^−6 M, cultured for 72 hrs, in comparison with the control group
Description: The cytotoxic effect of the benzamidine derivative of the present invention was evaluated by carrying out the experiment described below. The test substance was diluted in an appropriate solvent at a concentration of 10^−2 M. This substance was diluted in an appropriate culture medium for the cells used in the cytotoxicity test to a concentration of 10^−6M, and loaded into a 96-well plate in 100 μl per well. […] Finally, the absorbance of the developed plates was measured at 540 nm. […]
measurement-label: Cell survival rate (%)

| line-notation | val |
| --- | --- |
| CN(CCN1CCOCC1)c1nc(-c2ccc(OCCCCCOc3ccc(C(=N)NO)cc3)cc2)c(CN2CCOCC2)s1 | 11 |
| CNc1nc(-c2ccc(OCCCCCOc3ccc(C(=N)NO)cc3)cc2)c(N2CCOCC2)s1 | 92.0 |
| Cc1nc(-c2ccc(OCCCCCOc3ccc(C(=N)NO)cc3)cc2)c(CN2CCCCC2)s1 | 91.9 |
| CCCNCc1sc(C)nc1-c1ccc(OCCCCCOc2ccc(C(=N)NO)cc2)cc1 | 92 |
| N=C(NO)c1ccc(OCCCCCOc2ccc(-c3nc(N4CCCCC4)sc3N3CCOCC3)cc2)cc1 | 94 |
| Cc1nc(-c2ccc(OCCCCCOc3ccc(C(=N)NO)cc3)cc2)c(CNCCCn2ccnc2)s1 | 99 |
| CCCCNCc1sc(C)nc1-c1ccc(OCCCCCOc2ccc(C(=N)NO)cc2)cc1 | 93 |
| CN(CCO)c1nc(-c2ccc(OCCCCCOc3ccc(C(=N)NO)cc3)cc2)c(CN2CCOCC2)s1 | 100 |
| COCCNCc1sc(N(C)CCN2CCOCC2)nc1-c1ccc(OCCCCCOc2ccc(C(=N)NO)cc2)cc1 | 104 |
| CC(C)NCc1sc(N(C)CCN2CCOCC2)nc1-c1ccc(OCCCCCOc2ccc(C(=N)NO)cc2)cc1 | 104 |
| N=C(NO)c1ccc(OCCCCCOc2ccc(-c3nc(N4CCOCC4)sc3CN3CCOCC3)cc2)cc1 | 88 |
| CN(Cc1ccccc1)c1nc(-c2ccc(OCCCCCOc3ccc(C(=N)NO)cc3)cc2)c(CN2CCOCC2)s1 | 102 |
| Cc1nc(-c2ccc(OCCCCCOc3ccc(C(=N)NO)cc3)cc2)c(CN(C)C)s1 | 98.8 |
| CN(C)c1sc(-c2ccccc2)nc1-c1ccc(OCCCCCOc2ccc(C(=N)NO)cc2)cc1 | 91 |
| CN(CCN1CCOCC1)c1nc(-c2ccc(OCCCCCOc3ccc(C(=N)NO)cc3)cc2)c(CN2CCSCC2)s1 | 109 |
| N=C(NO)c1ccc(OCCCCCOc2ccc(-c3nc(N)sc3N3CCOCC3)cc2)cc1 | 94.6 |
| N=C(NO)c1ccc(OCCCCCOc2ccc(-c3nc(N4CCOCC4)sc3N3CCSCC3)cc2)cc1 | 90 |
| COCCN(CCOC)Cc1sc(N(C)CCN2CCOCC2)nc1-c1ccc(OCCCCCOc2ccc(C(=N)NO)cc2)cc1 | 105 |
| CN1CCN(c2sc(N3CCOCC3)nc2-c2ccc(OCCCCCOc3ccc(C(=N)NO)cc3)cc2)CC1 | 89 |
| Cc1nc(-c2ccc(OCCCCCOc3ccc(C(=N)NO)cc3)cc2)c(CN2CCN(C)CC2)s1 | 98.8 |
| N=C(NO)c1ccc(OCCCCCOc2ccc(-c3nc(N4CCOCC4)sc3N3CCCC3)cc2)cc1 | 99 |
| Cc1nc(-c2ccc(OCCCCCOc3ccc(C(=N)NO)cc3)cc2)c(N2CCOCC2)s1 | 85.9 |
| CNc1nc(-c2ccc(OCCCCCOc3ccc(C(=N)NO)cc3)cc2)c(CN2CCOCC2)s1 | 91 |
| CNc1sc(C)nc1-c1ccc(OCCCCCOc2ccc(C(=N)NO)cc2)cc1 | 94.3 |
| CCN(C)c1nc(-c2ccc(OCCCCCOc3ccc(C(=N)NO)cc3)cc2)c(CN2CCOCC2)s1 | 98 |
| Cc1nc(-c2ccc(OCCCCCOc3ccc(C(=N)NO)cc3)cc2)c(CN2CCSCC2)s1 | 93.4 |
| Cc1nc(-c2ccc(OCCCCCOc3ccc(C(=N)NO)cc3)cc2)c(CNC(C)(C)C)s1 | 99 |
| Cc1nc(-c2ccc(OCCCCCOc3ccc(C(=N)NO)cc3)cc2)c(NC(=O)c2ccncc2)s1 | 100.0 |
| Cc1nc(-c2ccc(OCCCCCOc3ccc(C(=N)NO)cc3)cc2)c(CNCC(C)C)s1 | 98 |
| Cc1nc(-c2ccc(OCCCCCOc3ccc(C(=N)NO)cc3)cc2)c(N2CCN(C)CC2)s1 | 91.8 |
| Cc1nc(-c2ccc(OCCCCCOc3ccc(C(=N)NO)cc3)cc2)c(N)s1 | 90 |
| CN1CCN(Cc2sc(N(C)CCN3CCOCC3)nc2-c2ccc(OCCCCCOc3ccc(C(=N)NO)cc3)cc2)CC1 | 110 |

---

inhibition at 1 µM overview
Test system: osteoclast differentiation
assay-text: Inhibitory effects on osteoclast differentiation (bone marrow cell/osteoblast co-culture, TRAP staining)
Format: cell-based, mice
stated-conditions: Mus musculus, Osteoclast, 168 h, read-out: Inhibition of osteoclast differentiation (%)

| line-notation | inhibition at 1 µM (%) |
| --- | --- |
| CN(CCN1CCOCC1)c1nc(-c2ccc(OCCCCCOc3ccc(C(=N)NO)cc3)cc2)c(CN2CCSCC2)s1 | 97 |
| Cc1nc(-c2ccc(OCCCCCOc3ccc(C(=N)NO)cc3)cc2)c(CNCC(C)C)s1 | 100 |
| CN1CCN(c2sc(N3CCOCC3)nc2-c2ccc(OCCCCCOc3ccc(C(=N)NO)cc3)cc2)CC1 | 100 |

---

System: osteoclast differentiation
assay-text: Inhibitory effects on osteoclast differentiation (bone marrow cell/osteoblast co-culture, TRAP staining)
Assay type: cell-based, mice
stated-conditions: Mus musculus, Osteoclast, 168 h, read-out: Inhibition of osteoclast differentiation (%)
inhibition at 1 µM overview

| compound | inhibition at 1 µM (%) |
| --- | --- |
| COCCN(CCOC)Cc1sc(N(C)CCN2CCOCC2)nc1-c1ccc(OCCCCCOc2ccc(C(=N)NO)cc2)cc1 [Example 30] | 93 |
| CN(CCO)c1nc(-c2ccc(OCCCCCOc3ccc(C(=N)NO)cc3)cc2)c(CN2CCOCC2)s1 [Example 25] | 100 |
| COCCNCc1sc(N(C)CCN2CCOCC2)nc1-c1ccc(OCCCCCOc2ccc(C(=N)NO)cc2)cc1 [Example 33] | 100 |
| Cc1nc(-c2ccc(OCCCCCOc3ccc(C(=N)NO)cc3)cc2)c(CNCCN2CCOCC2)s1 [Example 17] | 100 |

---

Tested on: osteoclast differentiation
assay-text: Inhibitory effects on osteoclast differentiation (bone marrow cell/osteoblast co-culture, TRAP staining)
Format: cell-based, mice
stated-conditions: Mus musculus, Osteoclast, 168 h; 1 μm; 7 days co-culture; TRAP-positive osteoclasts with 3 or more nuclei; relative to negative controls; read-out: Inhibition of osteoclast differentiation (%)
inhibition at 1 µM overview

| line-notation | inhibition at 1 µM, % |
| --- | --- |
| Cc1nc(-c2ccc(OCCCCCOc3ccc(C(=N)NO)cc3)cc2)c(CN2CCCCC2)s1 | 92.3 |
| CCN(C)c1nc(-c2ccc(OCCCCCOc3ccc(C(=N)NO)cc3)cc2)c(CN2CCOCC2)s1 | 98 |
| CN(Cc1ccccc1)c1nc(-c2ccc(OCCCCCOc3ccc(C(=N)NO)cc3)cc2)c(CN2CCOCC2)s1 | 77 |
| Cc1nc(-c2ccc(OCCCCCOc3ccc(C(=N)NO)cc3)cc2)c(NC(=O)c2cccnc2)s1 | 65.5 |
| N=C(NO)c1ccc(OCCCCCOc2ccc(-c3nc(N4CCOCC4)sc3CN3CCOCC3)cc2)cc1 | 95 |
| CNc1sc(C)nc1-c1ccc(OCCCCCOc2ccc(C(=N)NO)cc2)cc1 | 83.3 |
| CNc1nc(-c2ccc(OCCCCCOc3ccc(C(=N)NO)cc3)cc2)c(CN2CCOCC2)s1 | 100 |
| CN(CCN1CCOCC1)c1nc(-c2ccc(OCCCCCOc3ccc(C(=N)NO)cc3)cc2)c(CN2CCOCC2)s1 | 100 |
| N=C(NO)c1ccc(OCCCCCOc2ccc(-c3nc(N4CCCCC4)sc3N3CCOCC3)cc2)cc1 | 91 |
| CN1CCN(Cc2sc(N(C)CCN3CCOCC3)nc2-c2ccc(OCCCCCOc3ccc(C(=N)NO)cc3)cc2)CC1 | 88 |
| Cc1nc(-c2ccc(OCCCCCOc3ccc(C(=N)NO)cc3)cc2)c(CN2CCCC2)s1 | 100 |
| Cc1nc(-c2ccc(OCCCCCOc3ccc(C(=N)NO)cc3)cc2)c(N)s1 | 88 |
| N=C(NO)c1ccc(OCCCCCOc2ccc(-c3nc(N4CCOCC4)sc3N3CCOCC3)cc2)cc1 | 98 |
| Cc1nc(-c2ccc(OCCCCCOc3ccc(C(=N)NO)cc3)cc2)c(-n2cncn2)s1 | 68 |
| CN(C)c1sc(-c2ccccc2)nc1-c1ccc(OCCCCCOc2ccc(C(=N)NO)cc2)cc1 | 49 |
| N=C(NO)c1ccc(OCCCCCOc2ccc(-c3nc(-c4cccnc4)sc3N)cc2)cc1 | 86 |
| CNc1nc(-c2ccc(OCCCCCOc3ccc(C(=N)NO)cc3)cc2)c(N2CCOCC2)s1 | 58.9 |
| CCCCNCc1sc(C)nc1-c1ccc(OCCCCCOc2ccc(C(=N)NO)cc2)cc1 | 100 |
| Cc1nc(-c2ccc(OCCCCCOc3ccc(C(=N)NO)cc3)cc2)c(CN2CCOCC2)s1 | 96.4 |
| N=C(NO)c1ccc(OCCCCCOc2ccc(-c3nc(-c4ccccc4)sc3N)cc2)cc1 | 91 |
| Cc1nc(-c2ccc(OCCCCCOc3ccc(C(=N)NO)cc3)cc2)c(N2CCOCC2)s1 | 94 |
| Cc1nc(-c2ccc(OCCCCCOc3ccc(C(=N)NO)cc3)cc2)c(NC(=O)c2ccncc2)s1 | 78.6 |
| CC(C)NCc1sc(N(C)CCN2CCOCC2)nc1-c1ccc(OCCCCCOc2ccc(C(=N)NO)cc2)cc1 | 100 |
| Cc1nc(-c2ccc(OCCCCCOc3ccc(C(=N)NO)cc3)cc2)c(N2CCN(C)CC2)s1 | 78.6 |
| N=C(NO)c1ccc(OCCCCCOc2ccc(-c3nc(N)sc3N3CCOCC3)cc2)cc1 | 73.2 |
